# Test system: 661W cells
# protocol: Prevention of 9-cis-Retinal and light-induced phototoxicity, impedance recording
# Type: cell-based
# measurementSetup: Mus musculus, light or radiation study, 20 μM 9-cis-Retinal, 30,000 luxes white light, impedance converted to percentage of cytolysis, read-out: EC50 of protection against phototoxicity
measurementName: pEC50
In textbook form, pEC50 equals minus log to base ten of the concentration in mol/L.

Fill blank: measured pEC50 of the compound COc1ccc(SCc2cn(CCN(C)C)nn2)cc1 [Compound 35] is ____.
7.52
